Every entry's value here was drawn from paper PMC5636754.

The entries below are paired with their reported pKd.
Molecular target: T1, DAXX helical bundle (DHB) domain of death domain-associated protein (DAXX), aa 55-144 (UniProt Q9UER7 55-144)
T1 construct: Death domain-associated protein (DAXX), DHB domain, residues 55-144; they may stand in the supplementary file; also called DHB_(DAXX); DBH_(DAXX)
T1 sequence (looked up): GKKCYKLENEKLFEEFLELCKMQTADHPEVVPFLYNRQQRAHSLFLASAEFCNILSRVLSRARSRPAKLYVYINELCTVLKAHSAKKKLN
Experiment: ITC; DHB_(DAXX) titrated with ATRX fragments or peptides
Conditions: both partners purified
Bear in mind: pKd is minus log10 of a mol/L concentration; give just that figure.

The cases that follow already have their pKd on record.
Binder: DDDDDDNDPENRIAKKMLLEEIKANLS (peptide, UniProt P46100 1259-1285, looked up, begins with the polyD loop 1259-DDDDDD-1264) [ATRX_(1,259–1,285), minimum ATRX motif of 27 residues]
pKd: 7.15

Binder: NDPENRIAKKMLAEEIKANLS (peptide, UniProt P46100 1265-1285, looked up, source: synthetic peptide) [ATRX_(1,265–1,285) L1277A mutant peptide]
pKd: 4.09

Binder: NDPENRIAKKMLLEEAKANLS (peptide, UniProt P46100 1265-1285, looked up, source: synthetic peptide) [ATRX_(1,265–1,285) I1280A mutant peptide]
pKd: 4.96

Binder: NDPENRIAKKMLLEEIKANLS (peptide, UniProt P46100 1265-1285, looked up, the wild type is called 'wild type peptide control'; also called WT) [ATRX_(1,265–1,285), α-helix frame only (αDID), wild type peptide]
pKd: 6.00

We now examine a further binder.
Entry SSGDEALSKSVPVTVDDDDDDNDPENRIAKKMLLEEIKANLS (domain or fragment, human, UniProt P46100 1244-1285, looked up, source: co-expressed with DHB_(DAXX) and purified for the crystal) [ATRX_(1,244–1,285), 42-residue loop-helix segment of DID_(ATRX)] , pKd reported as 7.15
